assay.target: Serine/threonine-protein kinase Nek7 (Homo sapiens) (UniProt Q8TDX7)
Sequence (Q8TDX7 whole entry, looked up): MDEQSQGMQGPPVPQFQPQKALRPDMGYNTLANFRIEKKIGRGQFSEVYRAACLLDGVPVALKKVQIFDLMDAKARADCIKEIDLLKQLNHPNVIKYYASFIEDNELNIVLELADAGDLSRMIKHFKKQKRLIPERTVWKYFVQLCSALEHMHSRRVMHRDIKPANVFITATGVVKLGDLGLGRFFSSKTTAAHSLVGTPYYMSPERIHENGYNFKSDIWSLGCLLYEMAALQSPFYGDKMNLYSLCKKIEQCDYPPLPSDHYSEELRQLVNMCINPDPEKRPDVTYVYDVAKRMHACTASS
run.conditions: at 0.1 µM
assay.metric: inhibition (%)
Could you give me the number in %? Just the number is fine.

Example entries begin here.
| smiles.structure | assay.target | units.label | recorded.value |
| --- | --- | --- | --- |
| O=C(Nc1n[nH]c2nc(-c3ccc(O)cc3)c(Br)cc12)C1CC1 | Serine/threonine-protein kinase Nek7 (Homo sapiens) (UniProt Q8TDX7) | % | 13.2 |
| CN(c1ccc(NC(=O)Nc2c(Cl)cccc2Cl)cc1)c1ccnc(Nc2cccc(CS(C)(=O)=O)c2)n1 | Serine/threonine-protein kinase Nek7 (Homo sapiens) (UniProt Q8TDX7) | % | 1.01 |
| CN1CCN(CCCNc2nc3ccc(Oc4ccc(NC(=O)Nc5cc(C(F)(F)F)ccc5F)cc4)cc3[nH]2)CC1 | Serine/threonine-protein kinase Nek7 (Homo sapiens) (UniProt Q8TDX7) | % | 3.61 |
| C[C@@H](Oc1cc(-n2cnc3ccc(OC4CCN(C)CC4)cc32)sc1C(N)=O)c1ccccc1Cl | Serine/threonine-protein kinase Nek7 (Homo sapiens) (UniProt Q8TDX7) | % | 3.24 |
| c1ccc(-c2n[nH]cc2-c2ccnc(-c3ccc(OCCN4CCOCC4)cc3)c2)nc1 | Serine/threonine-protein kinase Nek7 (Homo sapiens) (UniProt Q8TDX7) | % | -5.33 |
| Cc1ccc(C(=O)NC(C)C)cc1-c1ccc(C(=O)NCC2CC2)cc1 | Serine/threonine-protein kinase Nek7 (Homo sapiens) (UniProt Q8TDX7) | % | -6.3 |
| NC(=O)c1cc(-c2ccc(F)cc2)cc(-c2ccncc2)c1N | Serine/threonine-protein kinase Nek7 (Homo sapiens) (UniProt Q8TDX7) | % | 6.78 |
| CCc1cccc(CC)c1/C=C/c1cncc(C(=O)NC)c1 | Serine/threonine-protein kinase Nek7 (Homo sapiens) (UniProt Q8TDX7) | % | 2.82 |
| COc1cccc(-n2cnc3c(N/N=C/c4ccncc4)ncnc32)c1 | Serine/threonine-protein kinase Nek7 (Homo sapiens) (UniProt Q8TDX7) | % | -0.81 |

Alright, here's another compound for you.
stdin: Enter inhibition (test system Serine/threonine-protein kinase Nek7 (Homo sapiens) (UniProt Q8TDX7)) for COc1ccc2cc(-c3c(-c4ccncc4)nc(-c4ccc(S(C)(=O)=O)cc4C)n3C)ccc2c1;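 also: figures are averaged percent inhibition of NEK7 kinase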
stdout: 5.77

---

assay.target: Tyrosine-protein kinase BTK (Homo sapiens);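 also: values are mean percent inhibition of BTK across replicate measurements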
run.conditions: at 1 µM
assay.metric: inhibition (%)
Could you give me the number in %? Just the number is fine.

| compound | assay.metric | units.label | recorded.value |
| --- | --- | --- | --- |
| COc1cc(Nc2ncc(-c3ccccc3)o2)cc(OC)c1OC | inhibition | % | 0.25 |
| COc1cccc(-n2cnc3c(N/N=C/c4ccncc4)ncnc32)c1 | inhibition | % | -2.79 |
| O=C(Nc1n[nH]c2nc(-c3ccco3)ccc12)C1CC1 | inhibition | % | 0.7 |
| Cc1nnc(-c2ccc(C)c(-c3ccc(C(=O)NCc4ccc(Cl)cc4)cc3)c2)o1 | inhibition | % | -4.02 |

stdin: Give the reported value of inhibition for this record: Cc1ccc(C(=O)NC2CCC2)cc1-c1ccc(C(=O)NCC2CC2)cc1
stdout: 0.88

stdin: Give the reported value of inhibition for this record: NS(=O)(=O)c1ccc(N/N=C2\C(=O)Nc3ccc(C(=O)NCCCn4ccnc4)cc32)cc1
stdout: 0.06

stdin: Give the reported value of inhibition for this record: O=C(Nc1n[nH]c2nc(-c3ccc(O)cc3)c(Br)cc12)C1CC1
stdout: 0.5

stdin: Give the reported value of inhibition for this record: O=C1Nc2ccccc2/C1=C/Nc1ccc(-n2cncn2)cc1
stdout: -0.4

stdin: Give the reported value of inhibition for this record: COC(=O)Nc1nc2ccc(Sc3ccc(NC(=O)Nc4cc(C(F)(F)F)ccc4F)cc3)cc2[nH]1
stdout: 2.1

stdin: Give the reported value of inhibition for this record: Nc1nccc(-c2c(-c3ccc(F)cc3)ncn2C2CCC(O)CC2)n1 (stereo not given)
stdout: 1.08

---

assay.target: Ribosomal protein S6 kinase alpha-4 (Homo sapiens) (UniProt O75676);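 also: mean inhibition of MSK2, GSK PKIS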
Sequence (O75676 whole entry, looked up): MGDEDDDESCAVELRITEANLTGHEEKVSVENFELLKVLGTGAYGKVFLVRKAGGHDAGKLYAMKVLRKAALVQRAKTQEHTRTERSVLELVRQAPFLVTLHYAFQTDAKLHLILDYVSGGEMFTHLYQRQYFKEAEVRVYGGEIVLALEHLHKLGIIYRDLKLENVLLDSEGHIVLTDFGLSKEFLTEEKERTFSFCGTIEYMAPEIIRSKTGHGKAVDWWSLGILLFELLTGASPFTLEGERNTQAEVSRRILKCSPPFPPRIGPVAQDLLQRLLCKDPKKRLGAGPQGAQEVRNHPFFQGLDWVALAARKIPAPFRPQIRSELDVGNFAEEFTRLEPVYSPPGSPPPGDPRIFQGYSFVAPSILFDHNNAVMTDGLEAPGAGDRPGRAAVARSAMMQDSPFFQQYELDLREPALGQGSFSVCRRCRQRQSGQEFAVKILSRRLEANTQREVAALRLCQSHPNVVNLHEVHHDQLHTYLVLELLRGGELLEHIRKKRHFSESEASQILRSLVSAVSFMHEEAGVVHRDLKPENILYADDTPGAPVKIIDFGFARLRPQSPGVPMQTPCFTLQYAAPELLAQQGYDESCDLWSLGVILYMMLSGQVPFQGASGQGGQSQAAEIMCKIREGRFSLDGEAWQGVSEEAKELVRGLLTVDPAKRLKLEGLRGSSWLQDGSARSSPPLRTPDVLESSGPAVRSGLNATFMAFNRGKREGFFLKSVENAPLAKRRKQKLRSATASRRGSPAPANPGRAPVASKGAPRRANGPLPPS
run.conditions: at 1 µM
# cutoff 6% applies to inhibition; >= gives True, < gives False

Use these answered entries as a reference point.
| smiles.structure | assay.target | discrete.label |
| --- | --- | --- |
| NCc1ccc(-n2c(-c3nonc3N)nc3cnccc32)cc1 | Ribosomal protein S6 kinase alpha-4 (Homo sapiens) (UniProt O75676) | True |
| Cc1ccc(C(=O)NC2CCC2)cc1-c1ccc(C(=O)NCC2CC2)cc1 | Ribosomal protein S6 kinase alpha-4 (Homo sapiens) (UniProt O75676) | False |
| NC(=O)c1ccc(Oc2nccc(-c3c(-c4ccc(F)cc4)ncn3C3CCNCC3)n2)cc1 | Ribosomal protein S6 kinase alpha-4 (Homo sapiens) (UniProt O75676) | False |
| O=C1NC(=O)C(c2cccc(Cl)c2)=C1Nc1ccc(Cl)c(C(=O)O)c1 | Ribosomal protein S6 kinase alpha-4 (Homo sapiens) (UniProt O75676) | False |
| COc1cc(C)c(N(C)C(=O)CN(C)C)cc1Nc1nc(Nc2cccc(F)c2C(N)=O)c2cc[nH]c2n1 | Ribosomal protein S6 kinase alpha-4 (Homo sapiens) (UniProt O75676) | False |

stdin: Has CCc1nccc2c1nc(-c1nonc1N)n2CC a recorded inhibition greater than or equal to 6%?
stdout: True

stdin: Has O=C(Nc1ccc(Oc2ccc3[nH]c(NC(=O)c4ccccc4)nc3c2)cc1)Nc1cc(C(F)(F)F)ccc1F a recorded inhibition greater than or equal to 6%?
stdout: False

stdin: Has C/C(Nc1ccc(S(N)(=O)=O)cc1)=C1/C(=O)Nc2ccccc21 a recorded inhibition greater than or equal to 6%?
stdout: True

stdin: Has O=C1Nc2ccccc2/C1=C/Nc1ccc(-n2cncn2)cc1 a recorded inhibition greater than or equal to 6%?
stdout: True

stdin: Has COc1cc2ncn(-c3cc(OCc4cccs4)c(C(N)=O)s3)c2cc1OC a recorded inhibition greater than or equal to 6%?
stdout: True

---

Below is a list of entries, each paired with its recorded inhibition value.
assay.target: Mitogen-activated protein kinase 11 (Homo sapiens);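 also: reported values are averaged (mean) percent inhibition of p38beta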
run.conditions: at 0.1 µM
Could you give me the number in %? Just the number is fine.

Example entries begin here.
| smiles.structure | inhibition, % |
| --- | --- |
| COc1cccc(-n2cnc3c(N/N=C/c4ccncc4)ncnc32)c1 | 1.35 |
| CN(C)CCCNc1nccc(-c2c(-c3ccc(F)cc3)nn3cc(C(F)(F)F)ccc23)n1 | 5.1 |
| C/C(Nc1ccc(S(N)(=O)=O)cc1)=C1/C(=O)Nc2ccccc21 | 1.67 |
| CCC(=O)Nc1ccc(C)c(-c2ccc(C(=O)NCC3CC3)cc2)c1 | 6.54 |

stdin: Give the reported value of inhibition for this record: FC(F)(F)c1cccc(Nc2nccc(-c3cnn4nc(-c5ccccc5)ccc34)n2)c1
stdout: 3.08

stdin: Give the reported value of inhibition for this record: COc1cc(Nc2ncc3c(C)nc(-c4cccc(Oc5ccccc5)c4)n3n2)cc(OC)c1OC
stdout: 0.51

stdin: Give the reported value of inhibition for this record: COc1cc2ncn(-c3cc(OCCc4ccccc4)c(C(N)=O)s3)c2cc1OC
stdout: 3.65

stdin: Give the reported value of inhibition for this record: Cc1nnc(-c2ccc(C)c(-c3ccc(C(=O)NCc4ccc(Cl)cc4)cc3)c2)o1
stdout: 6.73

stdin: Give the reported value of inhibition for this record: CS(=O)(=O)CCNCc1ccc(-c2ccc3ncnc(Nc4ccc(OCc5ccccc5)c(Br)c4)c3c2)o1
stdout: 3.98

stdin: Give the reported value of inhibition for this record: NS(=O)(=O)c1ccc(Nc2cc(-c3ccc(O)c(F)c3)n[nH]2)cc1
stdout: -1.5

---

Below is a list of entries, each paired with its recorded inhibition value.
assay.target: Leucine-rich repeat serine/threonine-protein kinase 2 (Homo sapiens) (UniProt Q5S007);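 also: reported values are averaged percent inhibition of LRRK2 kinase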
Sequence (Q5S007 whole entry): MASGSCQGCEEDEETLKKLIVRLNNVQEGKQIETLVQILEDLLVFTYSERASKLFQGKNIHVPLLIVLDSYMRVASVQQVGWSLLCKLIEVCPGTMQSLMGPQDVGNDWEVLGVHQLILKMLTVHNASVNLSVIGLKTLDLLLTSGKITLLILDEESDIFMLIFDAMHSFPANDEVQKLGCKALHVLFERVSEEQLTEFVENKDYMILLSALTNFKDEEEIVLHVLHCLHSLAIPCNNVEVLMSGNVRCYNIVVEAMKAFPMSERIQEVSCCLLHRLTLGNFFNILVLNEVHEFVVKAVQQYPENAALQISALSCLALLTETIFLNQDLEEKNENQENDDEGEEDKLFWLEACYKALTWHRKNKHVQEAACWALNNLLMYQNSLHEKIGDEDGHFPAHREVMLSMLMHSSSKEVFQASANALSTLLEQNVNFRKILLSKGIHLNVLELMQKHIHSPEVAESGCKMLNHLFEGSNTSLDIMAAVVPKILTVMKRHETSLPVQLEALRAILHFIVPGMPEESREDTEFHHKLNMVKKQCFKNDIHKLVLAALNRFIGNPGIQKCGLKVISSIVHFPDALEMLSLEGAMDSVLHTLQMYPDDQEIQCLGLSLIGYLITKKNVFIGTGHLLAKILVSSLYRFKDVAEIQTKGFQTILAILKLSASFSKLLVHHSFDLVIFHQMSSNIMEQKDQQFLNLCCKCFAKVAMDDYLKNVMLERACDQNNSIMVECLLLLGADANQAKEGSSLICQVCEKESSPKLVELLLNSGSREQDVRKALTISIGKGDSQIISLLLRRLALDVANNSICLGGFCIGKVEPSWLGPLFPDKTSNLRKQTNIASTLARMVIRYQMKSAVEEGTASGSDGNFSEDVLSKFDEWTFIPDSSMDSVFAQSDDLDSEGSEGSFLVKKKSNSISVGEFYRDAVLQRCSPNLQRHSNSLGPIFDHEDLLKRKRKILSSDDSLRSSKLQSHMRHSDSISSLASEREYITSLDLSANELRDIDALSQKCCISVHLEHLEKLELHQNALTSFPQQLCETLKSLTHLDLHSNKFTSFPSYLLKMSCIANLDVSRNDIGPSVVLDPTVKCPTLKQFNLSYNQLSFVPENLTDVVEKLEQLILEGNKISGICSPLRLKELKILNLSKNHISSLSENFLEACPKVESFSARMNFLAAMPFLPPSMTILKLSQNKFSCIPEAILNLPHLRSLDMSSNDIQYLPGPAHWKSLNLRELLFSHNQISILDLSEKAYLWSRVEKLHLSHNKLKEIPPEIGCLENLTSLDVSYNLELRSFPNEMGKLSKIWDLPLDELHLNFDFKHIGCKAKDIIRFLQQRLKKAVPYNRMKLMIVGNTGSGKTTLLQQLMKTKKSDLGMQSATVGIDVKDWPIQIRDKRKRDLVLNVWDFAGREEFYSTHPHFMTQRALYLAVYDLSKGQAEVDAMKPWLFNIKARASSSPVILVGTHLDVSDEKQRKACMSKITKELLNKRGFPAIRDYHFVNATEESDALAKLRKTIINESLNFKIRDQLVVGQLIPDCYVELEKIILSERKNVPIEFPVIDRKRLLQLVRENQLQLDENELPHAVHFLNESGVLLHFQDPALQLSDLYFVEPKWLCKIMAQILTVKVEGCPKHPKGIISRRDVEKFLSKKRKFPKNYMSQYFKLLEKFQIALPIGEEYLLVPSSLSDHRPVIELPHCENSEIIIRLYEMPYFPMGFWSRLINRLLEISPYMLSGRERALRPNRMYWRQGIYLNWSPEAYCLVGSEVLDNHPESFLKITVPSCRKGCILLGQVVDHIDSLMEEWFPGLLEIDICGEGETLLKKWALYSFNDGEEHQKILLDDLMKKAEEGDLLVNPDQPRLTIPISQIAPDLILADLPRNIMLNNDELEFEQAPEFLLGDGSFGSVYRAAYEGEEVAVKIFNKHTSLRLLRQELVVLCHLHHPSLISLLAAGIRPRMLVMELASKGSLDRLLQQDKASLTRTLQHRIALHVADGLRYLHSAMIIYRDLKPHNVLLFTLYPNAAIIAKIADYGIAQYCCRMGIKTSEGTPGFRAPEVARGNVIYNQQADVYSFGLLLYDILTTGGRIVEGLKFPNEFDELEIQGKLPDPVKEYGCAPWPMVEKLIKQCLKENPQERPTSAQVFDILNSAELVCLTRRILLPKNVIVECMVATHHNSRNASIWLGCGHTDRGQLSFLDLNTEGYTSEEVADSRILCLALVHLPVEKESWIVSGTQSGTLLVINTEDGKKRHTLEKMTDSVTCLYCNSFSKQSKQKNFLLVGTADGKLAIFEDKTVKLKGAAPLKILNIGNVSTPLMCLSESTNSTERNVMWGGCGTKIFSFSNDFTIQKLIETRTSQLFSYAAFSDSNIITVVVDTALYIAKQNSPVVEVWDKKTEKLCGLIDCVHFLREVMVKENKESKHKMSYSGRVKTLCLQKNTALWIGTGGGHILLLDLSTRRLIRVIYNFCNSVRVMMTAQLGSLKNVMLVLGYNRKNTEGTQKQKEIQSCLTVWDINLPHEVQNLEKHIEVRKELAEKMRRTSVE
run.conditions: at 0.1 µM
Could you give me the number in %? Just the number is fine.

Example entries begin here.
| smiles.structure | assay.target | recorded.value |
| --- | --- | --- |
| O=C(Nc1n[nH]c2nc(-c3ccco3)ccc12)C1CC1 | Leucine-rich repeat serine/threonine-protein kinase 2 (Homo sapiens) (UniProt Q5S007) | 3.59 |
| O=C1Nc2ccc(I)cc2C1=Cc1cc(Br)c(O)c(Br)c1 | Leucine-rich repeat serine/threonine-protein kinase 2 (Homo sapiens) (UniProt Q5S007) | 19.2 |

stdin: Give the reported value of inhibition for this record: CCN(CC)Cc1ccc(Nc2nccc(-c3cnn4ncccc34)n2)cc1
stdout: -6.19

stdin: Give the reported value of inhibition for this record: NCc1ccc(-n2c(-c3nonc3N)nc3cnccc32)cc1
stdout: 17.2

stdin: Give the reported value of inhibition for this record: Fc1ccc(-c2ncn(C3CCNCC3)c2-c2ccnc(Oc3ccc(F)c(F)c3)n2)cc1
stdout: -3.16

stdin: Give the reported value of inhibition for this record: CN(C)CCOc1ccc(-c2cc(-c3ccc4c(c3)CCC4=NO)c(-c3ccncc3)o2)cc1
stdout: 1.03

stdin: Give the reported value of inhibition for this record: Cc1nnc(-c2ccc(C)c(-c3ccc(C(=O)NCc4ccc(Cl)cc4)cc3)c2)o1
stdout: -4.32

stdin: Give the reported value of inhibition for this record: NC(=O)c1cc(-c2ccncc2)cc(-c2ccccc2)c1N
stdout: 3.59

stdin: Give the reported value of inhibition for this record: N#Cc1ccc(Oc2nccc(-c3c(-c4ccc(F)cc4)ncn3C3CCNCC3)n2)cc1
stdout: 2.8
